- tgt: RHOQ
- protocol.text: reporter assay of Huesken 2005
- applied.conditions: siRNA
Oligonucleotides are written 5' to 3', each unit as a sugar letter and its base; * is a phosphorothioate linkage, no mark a phosphodiester; rarer units and linkages stand in square brackets, end groups in braces. Plain capitals give the bases only. d = 2'-deoxy (DNA); r = 2'-OH (RNA)
Classification field: TRUE = normalised inhibition (eCFP-eYFP dual reporter) at or over 60%; FALSE = normalised inhibition (eCFP-eYFP dual reporter) under 60%.

Can sense rArGrArUrUrGrGrGrUrArArUrGrGrArArCrArCdTdT / antisense rGrUrGrUrUrCrCrArUrUrArCrCrCrArArUrCrUdGdT be said to have normalised inhibition (eCFP-eYFP dual reporter) at or above 60%?
TRUE

Can sense rUrUrCrCrArArGrArArArUrGrGrUrGrGrUrUrCdTdT / antisense rGrArArCrCrArCrCrArUrUrUrCrUrUrGrGrArAdGdA be said to have normalised inhibition (eCFP-eYFP dual reporter) at or above 60%?
FALSE

Can sense rArUrArArArUrCrArArUrUrArArCrArUrArUrUdTdT / antisense rArArUrArUrGrUrUrArArUrUrGrArUrUrUrArUdAdC be said to have normalised inhibition (eCFP-eYFP dual reporter) at or above 60%?
FALSE

Can sense rCrUrUrCrUrUrUrCrUrUrCrCrArArGrArArArUdTdT / antisense rArUrUrUrCrUrUrGrGrArArGrArArArGrArArGdAdC be said to have normalised inhibition (eCFP-eYFP dual reporter) at or above 60%?
FALSE

Field: next substance
Can sense rUrArGrCrUrArUrGrUrCrUrArCrUrGrCrArCrAdTdT / antisense rUrGrUrGrCrArGrUrArGrArCrArUrArGrCrUrAdTdA be said to have normalised inhibition (eCFP-eYFP dual reporter) at or above 60%?
TRUE

---

- tgt: UBE2N
- protocol.text: reporter assay of Huesken 2005
- applied.conditions: siRNA
Oligonucleotides are given in HELM: sugar(base)linkage, 5' to 3'; d 2'-deoxyribose, r ribose, m 2'-O-methylribose, p phosphate. ss, as = sense and antisense strand
reported.endpoint: normalised inhibition (eCFP-eYFP dual reporter)

Some entries whose results are on file:
Return reported normalised inhibition (eCFP-eYFP dual reporter); argument: `RNA1{r(U)p.r(U)p.r(C)p.r(A)p.r(U)p.r(G)p.r(U)p.r(G)p.r(G)p.r(U)p.r(C)p.r(A)p.r(U)p.r(U)p.r(G)p.r(C)p.r(U)p.r(G)p.r(G)p.d(T)p.d(T)}|RNA2{r(C)p.r(C)p.r(A)p.r(G)p.r(C)p.r(A)p.r(A)p.r(U)p.r(G)p.r(A)p.r(C)p.r(C)p.r(A)p.r(C)p.r(A)p.r(U)p.r(G)p.r(A)p.r(A)p.d(A)p.d(A)}$$$RNA1{StrandType:ss}|RNA2{StrandType:as}$`
39.5%

Return reported normalised inhibition (eCFP-eYFP dual reporter); argument: `RNA1{r(G)p.r(A)p.r(U)p.r(C)p.r(C)p.r(A)p.r(U)p.r(U)p.r(A)p.r(G)p.r(C)p.r(A)p.r(A)p.r(A)p.r(U)p.r(G)p.r(A)p.r(U)p.r(G)p.d(T)p.d(T)}|RNA2{r(C)p.r(A)p.r(U)p.r(C)p.r(A)p.r(U)p.r(U)p.r(U)p.r(G)p.r(C)p.r(U)p.r(A)p.r(A)p.r(U)p.r(G)p.r(G)p.r(A)p.r(U)p.r(C)p.d(A)p.d(T)}$$$RNA1{StrandType:ss}|RNA2{StrandType:as}$`
61.3%

Continuing:
Return reported normalised inhibition (eCFP-eYFP dual reporter); argument: `RNA1{r(A)p.r(C)p.r(C)p.r(A)p.r(G)p.r(U)p.r(U)p.r(C)p.r(C)p.r(U)p.r(G)p.r(G)p.r(C)p.r(A)p.r(U)p.r(C)p.r(A)p.r(A)p.r(A)p.d(T)p.d(T)}|RNA2{r(U)p.r(U)p.r(U)p.r(G)p.r(A)p.r(U)p.r(G)p.r(C)p.r(C)p.r(A)p.r(G)p.r(G)p.r(A)p.r(A)p.r(C)p.r(U)p.r(G)p.r(G)p.r(U)p.d(T)p.d(C)}$$$RNA1{StrandType:ss}|RNA2{StrandType:as}$`
97.4%

---

- tgt: SOST
- protocol.text: reporter assay of Huesken 2005
- applied.conditions: siRNA
Oligonucleotides are given in HELM: sugar(base)linkage, 5' to 3'; d 2'-deoxyribose, r ribose, m 2'-O-methylribose, p phosphate. ss, as = sense and antisense strand
reported.endpoint: normalised inhibition (eCFP-eYFP dual reporter)

Some entries whose results are on file:
Return reported normalised inhibition (eCFP-eYFP dual reporter); argument: `RNA1{r(G)p.r(C)p.r(C)p.r(A)p.r(G)p.r(G)p.r(G)p.r(G)p.r(U)p.r(G)p.r(G)p.r(C)p.r(A)p.r(G)p.r(G)p.r(C)p.r(G)p.r(U)p.r(U)p.d(T)p.d(T)}|RNA2{r(A)p.r(A)p.r(C)p.r(G)p.r(C)p.r(C)p.r(U)p.r(G)p.r(C)p.r(C)p.r(A)p.r(C)p.r(C)p.r(C)p.r(C)p.r(U)p.r(G)p.r(G)p.r(C)p.d(C)p.d(C)}$$$RNA1{StrandType:ss}|RNA2{StrandType:as}$`
77.7%

Return reported normalised inhibition (eCFP-eYFP dual reporter); argument: `RNA1{r(C)p.r(C)p.r(U)p.r(C)p.r(C)p.r(A)p.r(C)p.r(C)p.r(G)p.r(G)p.r(A)p.r(G)p.r(C)p.r(U)p.r(G)p.r(G)p.r(A)p.r(G)p.r(A)p.d(T)p.d(T)}|RNA2{r(U)p.r(C)p.r(U)p.r(C)p.r(C)p.r(A)p.r(G)p.r(C)p.r(U)p.r(C)p.r(C)p.r(G)p.r(G)p.r(U)p.r(G)p.r(G)p.r(A)p.r(G)p.r(G)p.d(C)p.d(T)}$$$RNA1{StrandType:ss}|RNA2{StrandType:as}$`
68.8%

Continuing:
Return reported normalised inhibition (eCFP-eYFP dual reporter); argument: `RNA1{r(A)p.r(C)p.r(C)p.r(A)p.r(U)p.r(G)p.r(A)p.r(A)p.r(C)p.r(C)p.r(G)p.r(G)p.r(G)p.r(C)p.r(G)p.r(G)p.r(A)p.r(G)p.r(A)p.d(T)p.d(T)}|RNA2{r(U)p.r(C)p.r(U)p.r(C)p.r(C)p.r(G)p.r(C)p.r(C)p.r(C)p.r(G)p.r(G)p.r(U)p.r(U)p.r(C)p.r(A)p.r(U)p.r(G)p.r(G)p.r(U)p.d(C)p.d(T)}$$$RNA1{StrandType:ss}|RNA2{StrandType:as}$`
69.5%

---

- tgt: P2RX3
- protocol.text: reporter assay of Huesken 2005
- applied.conditions: siRNA
Oligonucleotides are written 5' to 3', each unit as a sugar letter and its base; * is a phosphorothioate linkage, no mark a phosphodiester; rarer units and linkages stand in square brackets, end groups in braces. Plain capitals give the bases only. d = 2'-deoxy (DNA); r = 2'-OH (RNA)
reported.endpoint: normalised inhibition (eCFP-eYFP dual reporter)
// unit must come after the numeric part

Some entries whose results are on file:
Return reported normalised inhibition (eCFP-eYFP dual reporter); argument: sense rCrCrUrGrArCrArGrCrCrArGrGrGrArCrArUrGdTdT / antisense rCrArUrGrUrCrCrCrUrGrGrCrUrGrUrCrArGrGdTdT
33.4%

Return reported normalised inhibition (eCFP-eYFP dual reporter); argument: sense rCrUrGrGrArCrCrArUrCrGrGrGrArUrCrArUrCdTdT / antisense rGrArUrGrArUrCrCrCrGrArUrGrGrUrCrCrArGdCdT
60.7%

Continuing:
Return reported normalised inhibition (eCFP-eYFP dual reporter); argument: sense rCrUrGrArArArArUrCrArGrArUrGrCrArArGrGdTdT / antisense rCrCrUrUrGrCrArUrCrUrGrArUrUrUrUrCrArGdTdA
85.5%

---

- tgt: UBE2N
- protocol.text: reporter assay of Huesken 2005
- applied.conditions: siRNA
Oligonucleotides are given in HELM: sugar(base)linkage, 5' to 3'; d 2'-deoxyribose, r ribose, m 2'-O-methylribose, p phosphate. ss, as = sense and antisense strand
reported.endpoint: normalised inhibition (eCFP-eYFP dual reporter) (%)
Quick reminder: number only, in %, skip the unit.

Return reported normalised inhibition (eCFP-eYFP dual reporter); argument: `RNA1{r(G)p.r(G)p.r(U)p.r(C)p.r(C)p.r(C)p.r(C)p.r(A)p.r(G)p.r(C)p.r(A)p.r(C)p.r(U)p.r(G)p.r(C)p.r(A)p.r(G)p.r(A)p.r(U)p.d(T)p.d(T)}|RNA2{r(A)p.r(U)p.r(C)p.r(U)p.r(G)p.r(C)p.r(A)p.r(G)p.r(U)p.r(G)p.r(C)p.r(U)p.r(G)p.r(G)p.r(G)p.r(G)p.r(A)p.r(C)p.r(C)p.d(A)p.d(C)}$$$RNA1{StrandType:ss}|RNA2{StrandType:as}$`
62.2

Next up:
Return reported normalised inhibition (eCFP-eYFP dual reporter); argument: `RNA1{r(C)p.r(A)p.r(G)p.r(U)p.r(U)p.r(C)p.r(C)p.r(U)p.r(G)p.r(G)p.r(C)p.r(A)p.r(U)p.r(C)p.r(A)p.r(A)p.r(A)p.r(G)p.r(C)p.d(T)p.d(T)}|RNA2{r(G)p.r(C)p.r(U)p.r(U)p.r(U)p.r(G)p.r(A)p.r(U)p.r(G)p.r(C)p.r(C)p.r(A)p.r(G)p.r(G)p.r(A)p.r(A)p.r(C)p.r(U)p.r(G)p.d(G)p.d(T)}$$$RNA1{StrandType:ss}|RNA2{StrandType:as}$`
61.4
